Values were extracted from PubChem BioAssay (EPA / NIEHS).

- TEST DETAILS: CCTE_Shafer_MEA_acute_burst_percentage_std: CCTE's Neural Acute Assay for Standard Deviation of Burst Percentage, Shafer Lab (AID 2284018);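 also: fitted in the negative direction so actives lower burst percentage SD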
The source made the active and inactive calls. The calls were made as follows: active = hit-call score of the fitted dose curve at least 0.9, where 1 is the maximum; inactive = score below 0.9.
ENDPOINT LABEL: outcome

INSERT INTO measurements (smiles, experimental_result) VALUES
  ('ClC(Cl)=C(c1ccc(Cl)cc1)c1ccc(Cl)cc1', 'inactive'),
  ('CN(C)CCO', 'inactive'),
  ('Clc1ccc(C(Cl)(Cl)Cl)cc1', 'inactive');

###

- TEST DETAILS: CCTE_Shafer_MEA_dev_burst_rate: CCTE's Neural Network Formation Assay for Burst Rate, Shafer Lab (AID 2284042);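 as to AC50: potency for loss of burst rate below DMSO control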
Calls of active or inactive are those of the source. The calls were made as follows: active = hit-call score of the fitted dose curve at least 0.9, where 1 is the maximum; inactive = score below 0.9.
ENDPOINT LABEL: AC50

INSERT INTO assay_data (compound, endpoint_label, experimental_result) VALUES
  ('C=CC(N)=O', 'AC50', 'inactive'),
  ('Oc1ccc(C(c2ccc(O)cc2)(C(F)(F)F)C(F)(F)F)cc1', 'AC50', 'inactive'),
  ('O=C(O)C(F)(F)C(F)(F)C(F)(F)C(F)(F)C(F)(F)F', 'AC50', 'inactive'),
  ('O=S(=O)(O)C(F)(F)C(F)(F)C(F)(F)C(F)(F)C(F)(F)C(F)(F)F', 'AC50', 'inactive'),
  ('Clc1ccc(C(c2ccccc2Cl)C(Cl)(Cl)Cl)cc1 (stereo not given)', 'AC50', '1.98 µM (active)'),
  ('ClC(Cl)=C(c1ccc(Cl)cc1)c1ccc(Cl)cc1', 'AC50', '4.06 µM (active)'),
  ('COc1ccc(O)c(C(C)(C)C)c1', 'AC50', 'inactive'),
  ('ClC1=C(Cl)[C@]2(Cl)[C@@H]3[C@@H]4C[C@@H]([C@H]5O[C@@H]45)[C@@H]3[C@@]1(Cl)C2(Cl)Cl', 'AC50', '5.67 µM (active)'),
  ('CCC(C)(c1ccc(O)cc1)c1ccc(O)cc1', 'AC50', 'inactive'),
  ('O=S(=O)(O)C(F)(F)C(F)(F)C(F)(F)C(F)(F)F', 'AC50', 'inactive');
